meta.source: paper PMC9254699

# TARGET_OF_ASSAY: TGF-β1 (Homo sapiens, UniProt P01137)
# Sequence (P01137 279-390): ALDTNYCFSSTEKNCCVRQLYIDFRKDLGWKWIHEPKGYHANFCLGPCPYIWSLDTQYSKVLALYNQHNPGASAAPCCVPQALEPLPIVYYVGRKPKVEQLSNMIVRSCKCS
# ASSAY_INFO: SPR
MEASURED_METRIC: Kd

For orientation, consider the following solved cases.
BINDER: CIAEIDLIPRDRPFV [RIP]
Kd: 98.3 nM

BINDER: CLIDFRIPADREVPI [Scrambled RIP]
Kd: 745 nM

Now consider a different binder.
Returns the measured Kd for the input binder. Input: CIAEIDLIPRDRPF [RIPΔ] 183 nM
